- System: E. coli TG1/pYEAS
- experimentDescription: microbe, parasite or virus in culture
- Format: cell-based
- conditionsUsed: Escherichia coli, TG1/PYEAS, read-out: MIC (μg/ml) for E. coli TG1, harboring the plasmid pYEAS
endpointLabel: log10 MIC (log10 of the value in µg/mL)
// units: µg/mL (pre-log); metric: MIC; scale: log10

// solved cases for log10 MIC follow
> print(dat)
                                   molecule       targetentity  endpointlabel  resultnumber
1                  N=C(N)NCCC[C@H](N)C(=O)O  E. coli TG1/pYEAS      log10 MIC          4.00
2  CCC(O)C(N)C(=O)O (stereo not drawn) [AHVA, α-amino-β-hydroxyvaleric-acid]  E. coli TG1/pYEAS      log10 MIC          2.00
3                       NCCCC[C@H](N)C(=O)O  E. coli TG1/pYEAS      log10 MIC          3.88
4                        N[C@@H](CCO)C(=O)O  E. coli TG1/pYEAS      log10 MIC          3.00

For the molecule shown here, N[C@@H](Cc1c[nH]cn1)C(=O)O , give the reported log10 MIC.
4.48

----------
- Tested on: E. coli TG1/pYFIK
- experimentDescription: microbe, parasite or virus in culture
- Assay type: cell-based
- conditionsUsed: Escherichia coli, TG1/PYFIK, read-out: MIC (μg/ml) for E. coli TG1, harboring the plasmid pYFIK
Field: label. Allowed values: Yes (MIC < 5000 µg/mL) or No (MIC >= 5000 µg/mL).

> print(dat)
                                   compound       targetentity  class
1  CCC(O)C(N)C(=O)O (stereo not drawn) [AHVA, α-amino-β-hydroxyvaleric-acid]  E. coli TG1/pYFIK    Yes
2                CN(C)CC(N)C(=O)O (racemic)  E. coli TG1/pYFIK    Yes
3                        N[C@@H](CCO)C(=O)O  E. coli TG1/pYFIK    Yes
4                  C[C@@H](O)[C@H](N)C(=O)O  E. coli TG1/pYFIK     No
5                  N=C(N)NCCC[C@H](N)C(=O)O  E. coli TG1/pYFIK     No
6                       CC(C)[C@H](N)C(=O)O  E. coli TG1/pYFIK    Yes

Answer whether the compound N[C@@H](Cc1c[nH]cn1)C(=O)O has MIC strictly less than 5000 µg/mL
No

Check if MIC falls below 5000 µg/mL for NCCCC[C@H](N)C(=O)O .
No

Does the reported MIC of the following compound sit strictly below 5000 µg/mL? NCCSC[C@H](N)C(=O)O
Yes

----------
- Tested on: E. coli TG1/pYEAS
- experimentDescription: microbe, parasite or virus in culture
- Format: cell-based
- conditionsUsed: Escherichia coli, TG1/PYEAS, read-out: MIC (μg/ml) for E. coli TG1, harboring the plasmid pYEAS
- From the text: The homology of the yeaS, yfiK, yahN and yggA gene products with the lysine transporter, LysE, of Corynebacterium glutamicum (Vrljic et al., Mol. Microbiol.,22, 815-826, 1996) and RhtB protein involved in homoserine excretion, indicates the analogues function for these proteins. It is well known that the increased expression of the genes involved in antibiotic and heavy metal efflux increases the level of resistance to the drugs (Nikaido, H. J. Bacteriology, 178, 5853-5859, 1996). […]
endpointLabel: MIC

// worked examples, MIC included
> print(dat)
                                   compound       targetentity  endpointlabel       result
1    C[C@@H](O)[C@H](N)C(=O)O [L-threonine]  E. coli TG1/pYEAS            MIC  50000 µg/mL
2  CN(C)CC(N)C(=O)O (racemic) [4-aza-DL-leucine]  E. coli TG1/pYEAS            MIC    100 µg/mL
3            O=C(O)[C@@H]1CCCN1 [L-proline]  E. coli TG1/pYEAS            MIC   2000 µg/mL

E. coli TG1/pYEAS / MIC / CC(C)[C@H](N)C(=O)O [L-valine] : value?
0.5 µg/mL

// fetch E. coli TG1/pYEAS MIC for NCCSC[C@H](N)C(=O)O [AEC, S-(2-aminoethyl)-L-cysteine]
5 µg/mL

Query for E. coli TG1/pYEAS: what MIC does the record show for CCC(N)C(=O)O (stereo not drawn) [α-aminobutyric acid] ?
> 10000 µg/mL

Data provenance: patent US6979560B1
